- procedure details: In vitro release from rings of varying core length and apparent/standard k value (Crank's equation)
- Assay type: physicochemical
- run parameters: Table 5; core length 35 mm
// reported k (standard k) for each item listed
Use μg/day/mm as the unit, but write only the number.

Here is how some compounds turned out for k (standard k).
| compound | k (standard k) (μg/day/mm) |
| --- | --- |
| CC(=O)O[C@H]1CC[C@H]2[C@@H]3CCc4cc(O)ccc4[C@H]3CC[C@]12C | 0.838 |
| CC(=O)Oc1ccc2c(c1)CC[C@@H]1[C@@H]2CC[C@]2(C)[C@@H](O)CC[C@@H]12 [17β-oestradiol-3-acetate] | 10.017 |
| CCC(=O)O[C@H]1CC[C@H]2[C@@H]3CCc4cc(O)ccc4[C@H]3CC[C@]12C | 1.842 |

Indicate its recorded k (standard k); the compound in question is "CCC(=O)Oc1ccc2c(c1)CC[C@@H]1[C@@H]2CC[C@]2(C)[C@@H](O)CC[C@@H]12" 12.89

* * *

- procedure details: Silicone solubility at 37 °C in Dow Corning 360 medical fluid
- Type: physicochemical
- run parameters: organic solvent or mixture, Dow Corning 360 medical fluid, 37 °C, read-out: Silicone solubility
measurement kind: solubility (µg/mL)
# value in µg/mL; strip the unit string

| molecule | unit spec | measurement |
| --- | --- | --- |
| CC(=O)Oc1ccc2c(c1)CC[C@@H]1[C@@H]2CC[C@]2(C)[C@@H](O)CC[C@@H]12 [17β-oestradiol-3-acetate] | µg/mL | 186 |

Okay, next one:
Return value of solubility for input "CC(=O)O[C@H]1CC[C@H]2[C@@H]3CCc4cc(O)ccc4[C@H]3CC[C@]12C" , no commentary. 17

* * *

- procedure details: In vitro dissolution: mean daily release from full-length-core rings over up to 90 days in three media
- Format: physicochemical
- run parameters: 1.0% (w/v) BKC; 9 × 54 mm ring, core 141 × 2 mm, 37 °C, N = 4
measurement kind: Mean Daily Release (μg per day)
Hi! Could you send only the number? It should be in μg per day, unit omitted.

| compound | measurement kind | unit spec | measurement |
| --- | --- | --- | --- |
| CCCCC(=O)O[C@H]1CC[C@H]2[C@@H]3CCc4cc(O)ccc4[C@H]3CC[C@]12C [17β-oestradiol-17-valerate, reference compound] | Mean Daily Release | μg per day | 550 |
| CCC(=O)Oc1ccc2c(c1)CC[C@@H]1[C@@H]2CC[C@]2(C)[C@@H](O)CC[C@@H]12 | Mean Daily Release | μg per day | 1200 |
| CC(=O)Oc1ccc2c(c1)CC[C@@H]1[C@@H]2CC[C@]2(C)[C@@H](O)CC[C@@H]12 [17β-oestradiol-3-acetate] | Mean Daily Release | μg per day | 850 |
| C[C@]12CC[C@@H]3c4ccc(OC(=O)c5ccccc5)cc4CC[C@H]3[C@@H]1CC[C@@H]2O [reference compound] | Mean Daily Release | μg per day | 66 |
| CCC(=O)O[C@H]1CC[C@H]2[C@@H]3CCc4cc(O)ccc4[C@H]3CC[C@]12C | Mean Daily Release | μg per day | 218 |

Now turn to the next compound.
Recall and state the measured Mean Daily Release for "CC(=O)O[C@H]1CC[C@H]2[C@@H]3CCc4cc(O)ccc4[C@H]3CC[C@]12C" . 96

* * *

- procedure details: in vitro
- run parameters: human, blood
measurement kind: half-life

Give half-life for the following molecule: CC(=O)Oc1ccc2c(c1)CC[C@@H]1[C@@H]2CC[C@]2(C)[C@@H](O)CC[C@@H]12 [17β-oestradiol-3-acetate] < 1 min

* * *

- procedure details: In vitro release from rings of varying core length and apparent/standard k value (Crank's equation)
- Type: physicochemical
- run parameters: core length 35 mm; 1% (w/v) BKC; in µg/day/mm
Listed here are compounds together with their documented k.
// response body must contain only the number

Identify k associated with the compound "CC(=O)O[C@H]1CC[C@H]2[C@@H]3CCc4cc(O)ccc4[C@H]3CC[C@]12C" 0.8380

Give the measured k for CC(=O)Oc1ccc2c(c1)CC[C@@H]1[C@@H]2CC[C@]2(C)[C@@H](O)CC[C@@H]12 [17β-oestradiol-3-acetate] 10.017

Determine its reported k: "CCC(=O)Oc1ccc2c(c1)CC[C@@H]1[C@@H]2CC[C@]2(C)[C@@H](O)CC[C@@H]12" 12.89

Determine its reported k: "CCC(=O)O[C@H]1CC[C@H]2[C@@H]3CCc4cc(O)ccc4[C@H]3CC[C@]12C" 1.842

* * *

Measured Mean Daily Release (as precursor) by item
- procedure details: In vitro release from rings of varying core length and apparent/standard k value (Crank's equation)
- Format: physicochemical
- run parameters: core length 35 mm; 250 ml 1% (w/v) BKC, n = 5
Reply with just the number (in µg/day).

The following compounds have reported results that may help.
| compound | Mean Daily Release (as precursor) [µg/day] |
| --- | --- |
| CC(=O)Oc1ccc2c(c1)CC[C@@H]1[C@@H]2CC[C@]2(C)[C@@H](O)CC[C@@H]12 [17β-oestradiol-3-acetate] | 236.66 |
| CC(=O)O[C@H]1CC[C@H]2[C@@H]3CCc4cc(O)ccc4[C@H]3CC[C@]12C | 19.50 |
| CCC(=O)Oc1ccc2c(c1)CC[C@@H]1[C@@H]2CC[C@]2(C)[C@@H](O)CC[C@@H]12 | 300.00 |

Shift focus to the following entry.
Check the records and state Mean Daily Release (as precursor) for "CCC(=O)O[C@H]1CC[C@H]2[C@@H]3CCc4cc(O)ccc4[C@H]3CC[C@]12C" 42.86
